The reported measurements were obtained from ChEMBL document CHEMBL2396637.

# target-or-system: Voltage-dependent L-type calcium channel subunit alpha-1D (Rattus norvegicus)
# Sequence (P27732 whole entry): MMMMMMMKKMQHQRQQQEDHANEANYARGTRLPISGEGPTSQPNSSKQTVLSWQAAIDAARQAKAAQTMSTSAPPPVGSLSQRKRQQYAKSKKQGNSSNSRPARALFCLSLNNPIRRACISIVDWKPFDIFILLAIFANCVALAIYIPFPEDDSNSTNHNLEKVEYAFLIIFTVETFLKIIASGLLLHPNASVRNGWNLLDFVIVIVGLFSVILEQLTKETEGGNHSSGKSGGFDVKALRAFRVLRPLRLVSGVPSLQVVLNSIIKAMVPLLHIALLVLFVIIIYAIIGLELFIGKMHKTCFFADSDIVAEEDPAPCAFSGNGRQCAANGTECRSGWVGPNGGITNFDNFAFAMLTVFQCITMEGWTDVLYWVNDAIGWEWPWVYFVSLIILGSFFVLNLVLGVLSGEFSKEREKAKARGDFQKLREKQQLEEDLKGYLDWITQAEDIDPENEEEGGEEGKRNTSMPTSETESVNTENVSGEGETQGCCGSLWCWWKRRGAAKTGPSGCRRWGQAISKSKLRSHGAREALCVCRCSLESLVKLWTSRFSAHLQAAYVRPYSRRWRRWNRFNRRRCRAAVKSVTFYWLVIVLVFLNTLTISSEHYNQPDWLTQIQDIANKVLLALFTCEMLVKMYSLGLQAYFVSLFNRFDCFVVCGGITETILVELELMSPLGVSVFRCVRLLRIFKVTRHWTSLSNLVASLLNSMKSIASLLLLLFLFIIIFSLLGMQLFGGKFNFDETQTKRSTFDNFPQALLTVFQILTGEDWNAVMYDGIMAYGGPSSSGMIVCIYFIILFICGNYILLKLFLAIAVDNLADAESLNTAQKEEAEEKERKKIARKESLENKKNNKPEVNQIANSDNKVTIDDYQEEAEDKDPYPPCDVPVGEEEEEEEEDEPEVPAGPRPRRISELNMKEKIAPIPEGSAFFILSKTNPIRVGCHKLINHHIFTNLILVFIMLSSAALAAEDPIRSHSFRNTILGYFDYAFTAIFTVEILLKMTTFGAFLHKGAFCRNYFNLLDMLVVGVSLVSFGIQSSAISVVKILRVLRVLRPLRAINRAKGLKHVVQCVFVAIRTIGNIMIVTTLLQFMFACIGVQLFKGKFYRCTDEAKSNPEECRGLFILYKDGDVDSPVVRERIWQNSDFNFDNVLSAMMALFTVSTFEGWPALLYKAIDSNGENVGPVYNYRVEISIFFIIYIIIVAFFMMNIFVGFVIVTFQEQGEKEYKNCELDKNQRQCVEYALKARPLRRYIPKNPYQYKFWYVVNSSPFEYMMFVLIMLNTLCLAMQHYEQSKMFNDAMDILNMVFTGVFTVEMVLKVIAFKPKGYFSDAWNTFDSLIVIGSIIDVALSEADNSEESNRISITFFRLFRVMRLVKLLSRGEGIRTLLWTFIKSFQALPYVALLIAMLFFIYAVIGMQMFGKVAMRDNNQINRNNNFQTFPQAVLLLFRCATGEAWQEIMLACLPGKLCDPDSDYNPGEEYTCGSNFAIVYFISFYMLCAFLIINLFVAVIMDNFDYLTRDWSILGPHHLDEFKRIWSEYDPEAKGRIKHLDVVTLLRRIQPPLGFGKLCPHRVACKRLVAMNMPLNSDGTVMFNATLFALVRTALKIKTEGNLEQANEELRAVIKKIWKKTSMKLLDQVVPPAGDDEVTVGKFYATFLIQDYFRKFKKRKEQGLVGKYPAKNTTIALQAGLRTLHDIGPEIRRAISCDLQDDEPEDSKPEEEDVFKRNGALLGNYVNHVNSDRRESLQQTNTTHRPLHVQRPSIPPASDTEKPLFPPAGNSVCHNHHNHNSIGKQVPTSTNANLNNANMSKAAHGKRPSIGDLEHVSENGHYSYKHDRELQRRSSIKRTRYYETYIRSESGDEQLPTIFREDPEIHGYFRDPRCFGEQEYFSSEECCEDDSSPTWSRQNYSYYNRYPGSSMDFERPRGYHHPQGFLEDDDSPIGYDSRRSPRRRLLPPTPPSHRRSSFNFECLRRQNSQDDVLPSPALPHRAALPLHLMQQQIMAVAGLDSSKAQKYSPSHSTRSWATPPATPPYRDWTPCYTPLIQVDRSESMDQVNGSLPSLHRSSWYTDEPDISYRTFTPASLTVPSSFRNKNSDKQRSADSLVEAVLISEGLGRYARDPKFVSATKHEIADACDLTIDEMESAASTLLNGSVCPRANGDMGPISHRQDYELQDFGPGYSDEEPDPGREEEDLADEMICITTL
# assay-protocol: Antagonist activity at rat voltage-dependent L-type calcium channel Cav1.3alpha-1D expressed in HEK293 cells by FLIPR assay
quantity: IC50 (nM)

Example cases with answers are listed next.
{"columns": ["compound", "value-unit", "IC50"],
 "data": [
  ["COC(=O)C1=C(C)NC(=S)N(C(=O)OC(C)C)C1c1cccc([N+](=O)[O-])c1 (stereo not given)", "nM", 880],
  ["CC1=C(C(=O)OC(C)C)C(c2cccc([N+](=O)[O-])c2)N(C(=O)OC(C)C)C(=O)N1 (racemic)", "nM", 660],
  ["CCOC(=O)N1C(=O)NC(C(C)C)=C(C(=O)OC)C1c1cccc([N+](=O)[O-])c1 (stereo not given)", "nM", 24500]
]}

a. CCOC(=O)C1=C(N)OC(C)=C(C(=O)OC)C1c1cccc([N+](=O)[O-])c1 (stereo not given)
b. CSC1=NC(c2cccc([N+](=O)[O-])c2)C(C(=O)OC(C)C)=C(C)N1 (stereo not given)
c. COC(=O)C1=C(C)NC(C)=C(C(=O)OC(C)C)C1c1cccc2nonc12 (stereo not given)
d. COC(=O)N1C(=O)N(C(=O)OC)C(c2cccc([N+](=O)[O-])c2)C(C(=O)OC(C)C)=C1C (stereo not given)
Asked: Put these in order: smallest IC50 first, largest last. Form entry: labels listed in requested order.
Given back: c, b, a, d
